System: Human 293
experiment: Survival of 293 cells
measurement-setup: 50 micromolar, 96 h
property: Survival of 293 cells (%)
Give the value, in units of %, as a plain number.

compound=CCc1ccc(/C=C/c2cc(O)cc(O)c2)cc1 measurement_target="Human 293" reported=8
compound=CSc1ccc(/C=C/c2cc(O)cc(O)c2)cc1 measurement_target="Human 293" reported=57
compound="Oc1ccc(/C=C/c2cc(O)cc(O)c2)cc1 [Resveratrol, 3,5,4′-Trihydroxy-trans-stilbene]" measurement_target="Human 293" reported=0

Then there is this compound:
IN: Please provide the recorded Survival of 293 cells for Cc1ccc(/C=C/c2cc(O)cc(O)c2)cc1 , tested on Human 293.
OUT: 32

---

System: S. cerevisiae
experiment: Yeast replicative lifespan
Type: cell-based
measurement-setup: 10 μM; 2% (w/v) glucose YPD; untreated 100%
We begin with a simple list: items and their reported % change in yeast replicative lifespan relative to untreated organisms (10 μM).
// units = %; emit number, no label

Field: example entries. Status: answers known.
molecule="Oc1cc(O)cc(/C=C/c2ccc(Cl)cc2)c1 [BML-217, 3,5-Dihydroxy-4′-chloro-trans-stilbene]" uom=% reported=90
molecule="Oc1cc(O)cc(/C=C/c2ccc(F)cc2)c1 [BML-212, 3,5-Dihydroxy-4′-fluoro-trans-stilbene]" uom=% reported=98

IN: If you can, please state the reported % change in yeast replicative lifespan relative to untreated organisms (10 μM) value of CC(=O)Oc1cc(O)cc(/C=C/c2ccc(O)cc2)c1 [BML-221, 3,4′-Dihydroxy-5-acetoxy-trans-stilbene] .
OUT: 165

IN: I am curious: what % change in yeast replicative lifespan relative to untreated organisms (10 μM) value has been reported for Oc1cc(O)cc(/C=C/c2ccccc2)c1 [Pinosylvin, 3,5-Dihydroxy-trans-stilbene] ?
OUT: 114

---

Test system: Human 293
experiment: Survival of 293 cells
measurement-setup: 50 micromolar, 0 h
Catalogue of molecules with associated Survival of 293 cells
Please give a number only; it is taken to be in %.

molecule=CCc1ccc(/C=C/c2cc(O)cc(O)c2)cc1 measurement_target="Human 293" property="Survival of 293 cells" reported=100
molecule="Oc1ccc(/C=C/c2cc(O)cc(O)c2)cc1 [Resveratrol, 3,5,4′-Trihydroxy-trans-stilbene]" measurement_target="Human 293" property="Survival of 293 cells" reported=100
molecule=Cc1ccc(/C=C/c2cc(O)cc(O)c2)cc1 measurement_target="Human 293" property="Survival of 293 cells" reported=100

Now turn to the next molecule.
IN: Which Survival of 293 cells is listed for CSc1ccc(/C=C/c2cc(O)cc(O)c2)cc1 ?
OUT: 100

---

Catalogue of compounds with associated Survival of 293 cells
System: Human 293
experiment: Survival of 293 cells
measurement-setup: 50 micromolar, 48 h
I only need the number, in %, no unit after it.

IN: Which value of Survival of 293 cells has been reported for Cc1ccc(/C=C/c2cc(O)cc(O)c2)cc1 in the records?
OUT: 46

IN: # input compound: Oc1ccc(/C=C/c2cc(O)cc(O)c2)cc1 [Resveratrol, 3,5,4′-Trihydroxy-trans-stilbene] ; wanted: its Survival of 293 cells
OUT: 5

IN: Param item = CSc1ccc(/C=C/c2cc(O)cc(O)c2)cc1 ; retrieve measured Survival of 293 cells.
OUT: 55

IN: I would be grateful if you could share the reported Survival of 293 cells for CCc1ccc(/C=C/c2cc(O)cc(O)c2)cc1 .
OUT: 5
